Entries annotated with measured Activity
# System: K562
# assay protocol: Cell cycle arrest in human K562 cells assessed as accumulation at S phase at 10 uM after 24 hrs by flow cytometry
# Type: functional
Number only, in %; omit the unit.

For orientation, consider the following solved cases.
test smiles: CCC(=O)Nc1ccccc1C#C/C=C\C#Cc1ccccc1SC
unit descriptor: %
numeric readout: 42.1
//
test smiles: CCC(=O)Nc1ccccc1C#C/C=C\C#Cc1ccccc1C(F)(F)F
unit descriptor: %
numeric readout: 51.9
//
test smiles: CSc1ccccc1C#C/C=C\C#Cc1ccccc1N1CCCC1=O
unit descriptor: %
numeric readout: 0

Query compound follows.
// lookup Activity | system=K562 | key= `O=C1CCCCN1c1ccccc1C#C/C=C\C#Cc1ccccc1C(F)(F)F`
12.9

====

# Test system: UACC-62
# assay protocol: Growth inhibition of human UACC62 cells
# Type: functional
reported endpoint: GI50 (nM)
Number only, in nM; omit the unit.

test smiles: O=C1CCCCN1c1ccccc1C#C/C=C\C#Cc1ccccc1C(F)(F)F
target of assay: UACC-62
numeric readout: 1440
--
test smiles: CSc1ccccc1C#C/C=C\C#Cc1ccccc1N1CCCC1=O
target of assay: UACC-62
numeric readout: 1440
--
test smiles: CCC(=O)Nc1ccccc1C#C/C=C\C#Cc1ccccc1C(F)(F)F
target of assay: UACC-62
numeric readout: 4040

Query compound follows.
// lookup GI50 | system=UACC-62 | key= `CCC(=O)Nc1ccccc1C#C/C=C\C#Cc1ccccc1SC`
1690

====

# Test system: K562
# assay protocol: Cell cycle arrest in human K562 cells assessed as accumulation at S phase at 50 uM after 24 hrs by flow cytometry
# Type: functional
reported endpoint: Activity (%)
Number only, in %; omit the unit.

For orientation, consider the following solved cases.
test smiles: Nc1ccccc1C#C/C=C\C#Cc1ccccc1C(F)(F)F
target of assay: K562
unit descriptor: %
Activity: 19.3
//
test smiles: CCC(=O)Nc1ccccc1C#C/C=C\C#Cc1ccccc1SC
target of assay: K562
unit descriptor: %
Activity: 12.7
//
test smiles: CCC(=O)Nc1ccccc1C#C/C=C\C#Cc1ccccc1C(F)(F)F
target of assay: K562
unit descriptor: %
Activity: 16.1
//
test smiles: CSc1ccccc1C#C/C=C\C#Cc1ccccc1N1CCCC1=O
target of assay: K562
unit descriptor: %
Activity: 22.9

// lookup Activity | system=K562 | key= `O=C1CCCCN1c1ccccc1C#C/C=C\C#Cc1ccccc1C(F)(F)F`
0

====

# Tested on: DU-145
# assay protocol: Growth inhibition of human DU145 cells
# Format: functional
reported endpoint: GI50 (µM)
Number only, in µM; omit the unit.

For orientation, consider the following solved cases.
test smiles: O=C1CCCCN1c1ccccc1C#C/C=C\C#Cc1ccccc1C(F)(F)F
GI50 (µM): 1.68
--
test smiles: CSc1ccccc1C#C/C=C\C#Cc1ccccc1N1CCCC1=O
GI50 (µM): 10.1
--
test smiles: CCC(=O)Nc1ccccc1C#C/C=C\C#Cc1ccccc1C(F)(F)F
GI50 (µM): 40.5

Query compound follows.
# lookup: GI50 of `CCC(=O)Nc1ccccc1C#C/C=C\C#Cc1ccccc1SC`
1.93

====

Entries annotated with measured GI50
# System: MDA-MB-231
# assay protocol: Growth inhibition of human MDA-MB-231 cells
# Format: functional
Number only, in µM; omit the unit.

test smiles: CSc1ccccc1C#C/C=C\C#Cc1ccccc1N1CCCC1=O
GI50 (µM): 1.19

# lookup: GI50 of `CCC(=O)Nc1ccccc1C#C/C=C\C#Cc1ccccc1C(F)(F)F`
7.92

Same question, `O=C1CCCCN1c1ccccc1C#C/C=C\C#Cc1ccccc1C(F)(F)F` this time
1.16

Same question, `CCC(=O)Nc1ccccc1C#C/C=C\C#Cc1ccccc1SC` this time
2.17
